readout-name: melting point (°C)

> print(dat)
                           structure.smiles  numeric.value
1      c1ccc(Oc2ccc(OCn3cnc4ccccc43)cc2)cc1            112
2                     O=c1[nH]cnc2c1ncn2CCO            274
3  Cc1cc(OS(=O)(=O)C(F)(F)F)c2cccc(OCc3ccccc3)c2n1            158

----------
Each entry below carries its reported melting point.
readout-name: melting point

> print(dat)
                                   compound         result
1                     NS(=O)(=O)c1ccc(F)cc1  123 to 125 °C
2  CCOC(=O)C(C)Oc1ccc(N(C)c2cc3ccccc3c(O)n2)cc1 (stereo unspecified)          96 °C
3          CCOC(=O)CNC(=O)Oc1c(C)n(C)ccc1=O  132 to 135 °C
4               CC(=NC(C#N)=C(N)C#N)c1cccs1  177 to 179 °C
5  O=C1C(=O)c2ccccc2C2=C1SCC1(CCN(CCCOc3ccc(Cl)cc3)CC1)O2  130 to 132 °C
6                    Cc1cc(OCCO)c2ccccc2c1O  136 to 137 °C

----------
Each entry below carries its reported melting point.
readout-name: melting point

> print(dat)
                                    molecule           result
 1                  CC(C)c1ccc(CCCC(=O)O)cc1      50 to 51 °C
 2  Cc1cccc2c(=O)n(S(=O)(=O)c3ccc(Cl)cc3)c(=O)[nH]c12    221 to 225 °C
 3        CC(C)Oc1ccc2c(c1)Oc1ccccc1S2(=O)=O      94 to 95 °C
 4  COc1ccc2c(c1)c(Cc1cc(=O)n(-c3ccc(C(F)(F)F)cc3)[nH]1)c(C)n2C(=O)c1ccc(Cl)cc1    180 to 182 °C
 5  CC(C)c1cccc(C(C)C)c1NC(=O)NCC1(c2ccc3ccccc3c2)CCC1    146 to 150 °C
 6  COc1cc2c(cc1-c1ccccc1F)NC(=O)CC(c1ccnc(C#N)c1)=N2    240 to 242 °C
 7   Cc1cn(C)c2cc(C(C)C)c(Oc3cnc(N)nc3N)cc12           185 °C
 8           O=S1(=O)c2cccc3cccc(c23)N1CCCCl            78 °C
 9  CC(C)n1nc(-c2sc(NC(=O)CCNCc3ccccn3)nc2-c2ccccc2)ccc1=O    200 to 201 °C
10  COc1ccc(-c2nc(SCC(F)(F)F)[nH]c2-c2ccc(OC)cc2)cc1    119 to 120 °C
11  COC(=O)CN(C)C(=O)CC(Cc1cccc2ccccc12)C(=O)NC(Cc1c[nH]cn1)C(=O)NC(CC(C)C)C(O)C(=O)OC(C)C (mixture of isomers)      76 to 80 °C
12  O=c1cc(Sc2ccccc2)c(-c2nc[nH]n2)nn1-c1ccccc1    245 to 250 °C
13            CN(C)C(=O)COc1cccc(C(F)(F)F)c1  88.5 to 89.5 °C
14  CNC(C)c1ccc(C2CCC(N(C)C(=O)c3ccc(Cl)cc3)CC2)cc1 (stereo not given)    153 to 155 °C
15   NC(=O)c1ncn(Cc2ccc(Cl)c(C(F)(F)F)c2)c1N    230 to 232 °C
16  CCNC1CCN(c2c(F)c(N)c3c(=O)c(C(=O)O)cn(C4CC4)c3c2OC)CC1C (stereo not given)    230 to 232 °C
17  CCCNC(=O)C(C)=Cc1ccc2ccn(Cc3ccc(C(=O)O)cc3OC)c2c1    150 to 152 °C
18          Cn1ccc(C(=O)c2ccc(O)c(Cl)c2Cl)n1    220 to 222 °C
19                    NS(=O)(=O)c1ccccc1SCCF      83 to 85 °C
20  COc1ccc(-c2c(Cl)c(COc3ccccn3)nc3sc4c(c23)CCN(Cc2ccccc2)C4)cc1OC    165 to 167 °C
21  COC1=CC(=O)N(Cc2ncn(C(c3ccccc3)(c3ccccc3)c3ccccc3)c2C)CC1    181 to 184 °C
22  CC(Cc1c[nH]c2ccccc12)C1=CCNCC1 (stereo not given)           125 °C
23  CN(C)c1ccc2c(n1)C(c1ccccc1Cl)=NCc1nncn1-2    240 to 242 °C
24  CCCCc1oc2ccccc2c1C(=O)NCc1ccc2cc(O)ccc2c1    155 to 156 °C
25  COc1cc(Nc2nccc(Nc3ccc(OCCCO)cc3)n2)cc(OC)c1OC            69 °C
26  N#Cc1c(SSc2ccc([N+](=O)[O-])cc2C(Cl)(Cl)Cl)ccc2ccccc12           170 °C
27       O=c1occ(CSc2ccc([N+](=O)[O-])cc2)o1    109 to 112 °C
28   CO/C=C(/C(=O)OC)c1ccccc1Oc1nc(Cl)nnc1Cl    140 to 142 °C
29  OC12N=C(c3ccccc3)SC1Cc1cc(Cl)ccc12 (stereo not given)           155 °C
30  CC(=O)OCc1cccc2c1nc(-c1c(F)cccc1F)n2Cc1c(F)cccc1F    126 to 127 °C
31  CC(C)(CCCc1cccnc1)NC(=O)Cc1ccccc1[N+](=O)[O-]    117 to 118 °C
32  CSc1ccc(-c2coc3ccc(-c4nnc(N)o4)cc23)cc1Cl    232 to 233 °C
33  CC(C)(C)NCC(O)c1ccc(OCc2ccccc2)cn1 (stereo not given)      69 to 73 °C
34           COc1ccc([N+](=O)[O-])cc1NC(C)=O    172 to 177 °C
35        O=C1c2ccccc2C(=O)N1CCOc1cc(F)ccc1O           172 °C
36         Clc1cnn(CCCCN2CCN(c3ccccc3)CC2)c1      58 to 61 °C
37  CCCCC(NC(=O)C(CC(C)C)NC(=O)COc1ccc2ccccc2c1)C(=O)CSCc1ccco1 (stereo not given)      87 to 89 °C
38  CCCCCS(=O)(=O)NC(=O)C(C)Cc1ccc(OCCOC)cc1Oc1ncc(C(F)(F)F)cc1Cl (stereo not given)    136 to 138 °C
39  N#Cc1cnn2c(C(F)(F)F)cc(-c3ccc(F)cc3F)nc12           149 °C
40                 CCOC(=O)C=Cc1ccc(OC)cc1OC            58 °C
